List of normalized growth values.
TEST DETAILS: chemical genetic growth profiling, strain panel (AID 1159580);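 note: tested at 20 µM; growth read once vehicle control cultures reached saturation at 30 °C; 1 = growth at the plate median or of vehicle wells; lower values mean less growth of the strain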
PARTICULARS: S. cerevisiae deletion strains, growth OD, locus YDR150W, strain NUM1, active compounds read low
The whole screen tested about 5,500 compounds, of which about 2,000 (36%) were called active. Another 18% or so got no clear call; they are omitted. Some of the results follow.
Please reply with the number alone, leaving off any unit.

// worked examples, normalized growth included
For O=C(O)CCCCC1SCC2NC(=O)NC21 (stereo not drawn) , what is its reported normalized growth?
1.02

For `[Li+]` , what is its reported normalized growth?
1.02

For `COC(=O)[C@H]1[C@H]2C[C@@H]3c4[nH]c5cc(OC)ccc5c4CCN3C[C@H]2C[C@@H](OC(=O)c2cc(OC)c(OC)c(OC)c2)[C@@H]1OC` , what is its reported normalized growth?
1

For CCCNC(C)C(=O)Nc1ccccc1C (stereo not drawn) , what is its reported normalized growth?
1.01

For `COc1cc(C(=O)O)cc(OC)c1O` , what is its reported normalized growth?
0.979

Continuing:
For `COc1ccc2c(c1O)-c1c(OC)c(OC)cc3c1[C@H](C2)N(C)CC3` , what is its reported normalized growth?
1.01

For CN(C(=O)Cc1ccc(Cl)c(Cl)c1)C(CN1CCCC1)c1cccc(OCC(=O)O)c1 (stereo not drawn) , what is its reported normalized growth?
1

For `CC(C)(O)C#Cc1ccc(/C=N\O)cc1` , what is its reported normalized growth?
0.938

For `O=C(O)c1cc(=O)c(O)c2c(O)c(O)ccc2c1` , what is its reported normalized growth?
1

###

TEST DETAILS: chemical genetic growth profiling, strain panel (AID 1159580);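 note: tested at 20 µM; growth read once vehicle control cultures reached saturation at 30 °C; 1 = growth at the plate median or of vehicle wells; lower values mean less growth of the strain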
PARTICULARS: S. cerevisiae deletion strains, growth OD, locus YLR221C, strain rsa3, active compounds read low
In all, about 5,500 compounds went through this assay and about 2,000 (36%) were called active. Not shown: some 18% with an inconclusive outcome. This is one part of the list.
MEASURED ATTRIBUTE: normalized growth
Please reply with the number alone, leaving off any unit.

// worked examples, normalized growth included
For `COS(C)(=O)=O` , what is its reported normalized growth?
0.961

For CCCNC(C)C(=O)Nc1ccccc1C (configuration not stated) , what is its reported normalized growth?
0.988

For `NCc1ccc(S(N)(=O)=O)cc1` , what is its reported normalized growth?
1.05

For `COC(=O)[C@H]1[C@H]2C[C@@H]3c4[nH]c5cc(OC)ccc5c4CCN3C[C@H]2C[C@@H](OC(=O)c2cc(OC)c(OC)c(OC)c2)[C@@H]1OC` , what is its reported normalized growth?
1.02

For COc1ccc(C[C@H](N)C(=O)N[C@@H]2[C@@H](CO)OC(n3cnc4c(N(C)C)ncnc43)[C@@H]2O)cc1 (some centres not stated) , what is its reported normalized growth?
0.991

Continuing:
For `O=c1cccc2n1C[C@H]1CNCC2C1` , what is its reported normalized growth?
0.971

For CC1(C)CC2C1CCC1(C)OC1CCC2(C)O (configuration not stated) , what is its reported normalized growth?
1.07

###

List of normalized growth values.
TEST DETAILS: chemical genetic growth profiling, strain panel (AID 1159580);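 note: tested at 20 µM; growth read once vehicle control cultures reached saturation at 30 °C; 1 = growth at the plate median or of vehicle wells; lower values mean less growth of the strain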
PARTICULARS: S. cerevisiae deletion strains, growth OD, locus YML016C, strain PPZ1, active compounds read low
The whole screen tested about 5,500 compounds, of which about 2,000 (36%) were called active. Inconclusive results (about 18%) are left out. Some of the results follow.

For CC(=O)O[C@H]1CC[C@@]2(C)C(=CCC3C2CC[C@]2(C)C(=O)CCC32)C1 (stereo not given in full) , what is its reported normalized growth?
0.947 (inactive)

For `Oc1ccc(/C=C/c2cc(O)cc(O)c2)cc1` , what is its reported normalized growth?
0.993 (inactive)

For CC12CCC3C(CC=C4CC(O)CCC43C)C1CCC2=O (stereo not given) , what is its reported normalized growth?
0.979 (inactive)

For CCC(CCC(C)C1CCC2C3CC=C4C[C@@H](OC(C)=O)CC[C@]4(C)C3CC[C@]12C)C(C)C (stereo not given in full) , what is its reported normalized growth?
1.01 (inactive)

Continuing:
For `c1ccc2[nH]c(-c3cscn3)nc2c1` , what is its reported normalized growth?
0.997 (inactive)

For CN1CCc2cccc3c2C1Cc1ccc(O)c(O)c1-3 (stereo not given) , what is its reported normalized growth?
1.01 (inactive)

For CC(=O)O[C@H]1CC[C@@]2(C)C(=CCC3C2CC[C@@]2(C)C3CC[C@@H]2C(C)CCCC(C)C)C1 (stereo not given in full) , what is its reported normalized growth?
1.01 (inactive)

For COc1cc2c(cc1O)CC1c3c(cc(O)c(OC)c3-2)CCN1C (stereo not given) , what is its reported normalized growth?
1 (inactive)

For `O=C(/C=C/c1ccc(O)c(O)c1)O[C@@H]1C[C@](O)(C(=O)O)C[C@@H](O)[C@H]1O` , what is its reported normalized growth?
1 (inactive)

For CC[C@@H]1[C@@H](O)N2C3C[C@H]1C1C(O)[C@]4(C[C@@H]12)c1ccccc1N(C)[C@@H]34 (stereo not given in full) , what is its reported normalized growth?
0.992 (inactive)

###

TEST DETAILS: chemical genetic growth profiling, strain panel (AID 1159580);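 note: tested at 20 µM; growth read once vehicle control cultures reached saturation at 30 °C; 1 = growth at the plate median or of vehicle wells; lower values mean less growth of the strain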
PARTICULARS: S. cerevisiae deletion strains, growth OD, locus YHR142W, strain chs7, active compounds read low
Out of some 5,500 compounds screened, about 2,000 (36%) were called active. Not shown: some 18% with an inconclusive outcome. Some of the results follow.
MEASURED ATTRIBUTE: normalized growth
Please reply with the number alone, leaving off any unit.

// worked examples, normalized growth included
For CC1(C)CC2C1CCC1(C)OC2(C)CCC1O (stereo not drawn) , what is its reported normalized growth?
1.02

For CC1(C)O[C@@H]2CC3C4CCC5=CC(=O)C=C[C@]5(C)C4[C@@H](O)C[C@]3(C)[C@]2(C(=O)CO)O1 (stereo partly drawn) , what is its reported normalized growth?
1.01

For `O=C(O)CCC(=O)c1ccc(-c2ccccc2)cc1` , what is its reported normalized growth?
0.94

For CC1(C)C2CC(=O)O[C@@]3(C)C4=CC(=O)O[C@@H](c5ccoc5)[C@]4(C)CCC3[C@@]2(C)C=C[C@H]1O (stereo partly drawn) , what is its reported normalized growth?
0.964

Continuing:
For `COc1ccc2c(c1O)-c1c(OC)c(OC)cc3c1[C@H](C2)N(C)CC3` , what is its reported normalized growth?
0.915

For CC(COc1ccccc1)N(CCCl)Cc1ccccc1 (stereo not drawn) , what is its reported normalized growth?
0.938

For `O=c1cccc2n1C[C@H]1CNCC2C1` , what is its reported normalized growth?
0.991

For O=C(O)CCCCC1SCC2NC(=O)NC21 (stereo not drawn) , what is its reported normalized growth?
0.982

For Nc1nc(N)c2nc(CNc3ccc(C(=O)NC(CCC(=O)O)C(=O)O)cc3)cnc2n1 (stereo not drawn) , what is its reported normalized growth?
0.965

For `O=C1N=C(O)CN1/N=C\c1ccc(-c2ccc([N+](=O)[O-])cc2)o1` , what is its reported normalized growth?
0.986

For `C[C@H](COc1ccccc1)N[C@H](C)[C@H](O)c1ccc(O)cc1` , what is its reported normalized growth?
1

For NC(=O)c1cc[n+](CC2=C(C(=O)O)N3C(=O)C(NC(=O)C(c4ccccc4)S(=O)(=O)[O-])C3SC2)cc1 (stereo not drawn) , what is its reported normalized growth?
0.993

For CCOC(=O)CCCCCCCCCCCCC1C=CCC1 (stereo not drawn) , what is its reported normalized growth?
0.975

For `NC(=O)N/N=C\c1ccc([N+](=O)[O-])o1` , what is its reported normalized growth?
1.02

For CC[C@]1(O)CC2CN(CCc3c([nH]c4ccccc34)[C@@](C(=O)OC)(c3cc4c(cc3OC)N(C=O)[C@H]3[C@@](O)(C(=O)OC)[C@H](OC(C)=O)[C@]5(CC)C=CCN6CC[C@]43[C@@H]65)C2)C1 (stereo partly drawn) , what is its reported normalized growth?
1.04

For Nc1nc2c(c(=O)[nH]1)N(C=O)C(CNc1ccc(C(=O)N[C@@H](CCC(=O)O)C(=O)O)cc1)CN2 (stereo partly drawn) , what is its reported normalized growth?
0.957

For `O=C1O[C@@H](CO)[C@H](O)[C@@H](O)[C@@H]1O` , what is its reported normalized growth?
1.02

For `NCCCCN=C(N)N` , what is its reported normalized growth?
1.05

For CC[C@@H](C(=O)[C@@H](C)[C@@H](O)[C@H](C)[C@@H]1O[C@@H]([C@@H](CC)C(=O)O)CC[C@@H]1C)[C@H]1OC2(C=C[C@@H](O)[C@]3(CC[C@@](C)([C@H]4CC[C@](O)(CC)[C@H](C)O4)O3)O2)[C@H](C)C[C@@H]1C (stereo partly drawn) , what is its reported normalized growth?
0.836

For COc1cc2c(cc1O)CC1c3c(cc(O)c(OC)c3-2)CCN1C (stereo not drawn) , what is its reported normalized growth?
0.996

For `O=C(O)CNCP(=O)(O)O` , what is its reported normalized growth?
1.02

For CN1CCc2cccc3c2C1Cc1ccc(O)c(O)c1-3 (stereo not drawn) , what is its reported normalized growth?
0.867

For CCCCC(CC)CN=C(N)NC(N)=NCCCCCCN=C(N)NC(N)=NCC(CC)CCCC (stereo not drawn) , what is its reported normalized growth?
0.0728

For CC[C@@]1(C2O[C@@H](C3O[C@@](O)(CC)[C@H](C)C[C@@H]3C)C[C@@H]2C)CC[C@H]([C@]2(C)CCC3(C[C@H](O)[C@@H](C)[C@@H]([C@H](C)[C@@H](OC)[C@H](C)C(=O)O)O3)O2)O1 (stereo partly drawn) , what is its reported normalized growth?
0.966

For CCCN(CCC)C(=O)C(CCC(=O)O)NC(=O)c1ccccc1 (stereo not drawn) , what is its reported normalized growth?
0.977

For `Nc1nc2ncc(CNc3ccc(C(=O)N[C@@H](CCC(=O)O)C(=O)O)cc3)nc2c(=O)[nH]1` , what is its reported normalized growth?
0.989

For `CCOc1ccc2c(c1)C(C)=CC(C)(C)N2` , what is its reported normalized growth?
0.98

For `O=C(O)c1cc(O)c(O)c(O)c1` , what is its reported normalized growth?
1.03

For `CC1=C(/C=C/C(C)=C/C=C/C(C)=C/CO)C(C)(C)CCC1` , what is its reported normalized growth?
1

For `NC(=O)c1ccc(N)nc1` , what is its reported normalized growth?
1.01

For `O=C1CN(/N=C\c2ccc([N+](=O)[O-])o2)C(=O)N1` , what is its reported normalized growth?
0.946
